The following compounds are listed with their measured IC50 values.
tested on: 845751-090-R-J2-PDC tumor spheroid viability; experiment: Anticancer human tumor 845751-090-R-J2-PDC patient-derived head and neck squamous carcinoma cell line growth inhibition [IpAb]; conditions: curve of first compound; second compound 0.0316 µM; spheroids with HUVEC and MSC

Short answer for Cc1nc(NC(=O)N2CCCC2C(N)=O)sc1-c1ccnc(C(C)(C)C(F)(F)F)c1 (stereo not given) + CCN1CCN(Cc2ccc(Nc3ncc(F)c(-c4cc(F)c5nc(C)n(C(C)C)c5c4)n3)nc2)CC1 : IC50 was 76.4 nM

Short answer for Cn1cnc2c(F)c(Nc3ccc(Br)cc3Cl)c(C(=O)NOCCO)cc21 + CCN1CCN(Cc2ccc(Nc3ncc(F)c(-c4cc(F)c5nc(C)n(C(C)C)c5c4)n3)nc2)CC1 : IC50 was > 3000 nM

Short answer for CC(C)n1nc(-c2ccc3oc(N)nc3c2)c2c(N)ncnc21 + CCN1CCN(Cc2ccc(Nc3ncc(F)c(-c4cc(F)c5nc(C)n(C(C)C)c5c4)n3)nc2)CC1 : IC50 was 3.84 nM

Short answer for CC(=O)c1c(C)c2cnc(Nc3ccc(N4CCNCC4)cn3)nc2n(C2CCCC2)c1=O + CCN1CCN(Cc2ccc(Nc3ncc(F)c(-c4cc(F)c5nc(C)n(C(C)C)c5c4)n3)nc2)CC1 : IC50 was > 300 nM

Short answer for CC1(C)CCC(CN2CCN(c3ccc(C(=O)NS(=O)(=O)c4ccc(NCC5CCOCC5)c([N+](=O)[O-])c4)c(Oc4cnc5[nH]ccc5c4)c3)CC2)=C(c2ccc(Cl)cc2)C1 + CCN1CCN(Cc2ccc(Nc3ncc(F)c(-c4cc(F)c5nc(C)n(C(C)C)c5c4)n3)nc2)CC1 : IC50 was 7030 nM

###

test system: 845751-090-R-J2-PDC tumor spheroid viability; test: Anticancer human tumor 845751-090-R-J2-PDC cell line growth inhibition [IpAb]; settings: second compound 1 µM; first compound 0.0316 µM; stronger effect = lower value; spheroids with HUVEC and MSC;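 also: spheroids exposed to compounds for 7 days before readout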;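 as to viability, T/C: CTG3D luminescence normalised so that 100% = DMSO vehicle control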
The following compounds are listed with their measured viability, T/C values.

Use these answered entries as a reference point.
C=CCn1c(=O)c2cnc(Nc3ccc(N4CCN(C)CC4)cc3)nc2n1-c1cccc(C(C)(C)O)n1 + CC(C)NCC(C(=O)N1CCN(c2ncnc3c2C(C)CC3O)CC1)c1ccc(Cl)cc1 : 24.5%
C=CCn1c(=O)c2cnc(Nc3ccc(N4CCN(C)CC4)cc3)nc2n1-c1cccc(C(C)(C)O)n1 + CCN1CCN(Cc2ccc(Nc3ncc(F)c(-c4cc(F)c5nc(C)n(C(C)C)c5c4)n3)nc2)CC1 : 88.9%
Cn1ncnc1[C@H]1c2n[nH]c(=O)c3cc(F)cc(c23)N[C@@H]1c1ccc(F)cc1 + CCN1CCN(Cc2ccc(Nc3ncc(F)c(-c4cc(F)c5nc(C)n(C(C)C)c5c4)n3)nc2)CC1 : 46.4%
Cn1ncnc1[C@H]1c2n[nH]c(=O)c3cc(F)cc(c23)N[C@@H]1c1ccc(F)cc1 + CC(C)NCC(C(=O)N1CCN(c2ncnc3c2C(C)CC3O)CC1)c1ccc(Cl)cc1 : 22.9%

Now examine the next entry.
Short answer for COc1c(OCCCN2CCOCC2)ccc2c3n(c(=NC(=O)c4cnc(N)nc4)nc12)CCN3 + CCN1CCN(Cc2ccc(Nc3ncc(F)c(-c4cc(F)c5nc(C)n(C(C)C)c5c4)n3)nc2)CC1 : viability, T/C was 31.2%
